Test system: KYSE-150 esophageal carcinoma cell line
test.protocol: In vitro cell-based assay: cellular proliferation via BrdU incorporation (ELISA)
Design: species or system human
condition.notes: Homo sapiens, KYSE-150, 168 hours compound incubation
IC50 values for the molecules below.

Reference set (8 entries):
O=C(O)c1ccncc1NCC1CCOc2cc(-c3ccc(C(F)(F)F)cc3)ccc21 (stereo not drawn)
1000 to 10000 nM
Cc1cccc(Sc2ccc3c(c2)CCC[C@H]3CNc2cnccc2C(=O)O)c1
100 to 1000 nM
CN(CC1CC1)c1ccc2c(c1)CCC[C@H]2CNc1cnccc1C(=O)O
100 to 1000 nM
Cc1cccc(N(C)c2ccc3c(c2)OCC[C@H]3CNc2cnccc2C(=O)O)c1
≤ 100 nM
O=C(O)c1ccncc1NCC1CCOc2cc(Sc3cccs3)ccc21 (stereo not drawn)
1000 to 10000 nM
CN(c1ccc(OCC(F)(F)F)cc1)c1ccc2c(c1)OCC[C@H]2CNc1cnccc1C(=O)O
≤ 100 nM
COc1cc2c(cc1F)[C@H](CNc1cnccc1C(=O)O)CCC2
1000 to 10000 nM
CN(c1cccc(Cl)c1)c1ccc2c(c1)OCC[C@H]2CNc1cnccc1C(=O)O
≤ 100 nM

Prompt: Query: IC50; subject: O=C(O)c1ccncc1NCC1CCCc2cc(OCC3CCOCC3)ccc21 (stereo not drawn)
Response: > 10000 nM

Prompt: Query: IC50; subject: CN(c1cccc(F)c1)c1ccc2c(c1)CCC[C@H]2CNc1cnccc1C(=O)O
Response: ≤ 100 nM

Prompt: Query: IC50; subject: CN(c1ccc(O)cc1)c1ccc2c(c1)CCC[C@H]2CNc1cnccc1C(=O)O
Response: 1000 to 10000 nM

Prompt: Query: IC50; subject: COCCOc1ccc(N(C)c2ccc3c(c2)CCC[C@H]3CNc2cnccc2C(=O)O)cc1
Response: ≤ 100 nM

====

Reported IC50 for target or system JMJD2C (Homo sapiens (Human)), by entry.

Reference set (7 entries):
CN(c1cccc(F)c1)c1ccc2c(c1)CCC[C@H]2CNc1cnccc1C(=O)O [Example 7]
100 to 1000 nM
Cc1ccc(-c2ccc3c(c2)OCC[C@H]3CNc2cnccc2C(=O)O)cc1 [Example 32]
100 to 1000 nM
CN(c1ccc(N2CC(F)(F)C2)cc1)c1ccc2c(c1)CCC[C@H]2CNc1cnccc1C(=O)O [Example 195]
100 to 1000 nM
CN(c1cccc(F)c1)c1ccc2c(c1)OCC[C@H]2CNc1cnccc1C(=O)O [Example 20]
100 to 1000 nM
CN(c1ccc(N2CC(O)C2)cc1)c1ccc2c(c1)CCC[C@H]2CNc1cnccc1C(=O)O [Example 200]
100 to 1000 nM
CN(c1ccc(N2CCCC2)cc1)c1ccc2c(c1)CCC[C@H]2CNc1cnccc1C(=O)O [Example 167]
100 to 1000 nM
O=C(O)c1ccncc1NCC1CCCc2cc(N3CCCC3=O)ccc21 (centres unmarked) [Example 3]
100 to 1000 nM

The record that follows has no IC50 shown yet.
Prompt: GET /values?readout=IC50&system=JMJD2C (Homo sapiens (Human))&item= Cc1cccc(Sc2ccc3c(c2)CCC[C@@H]3CNc2cnccc2C(=O)O)c1 [Example 68]
Response: 1000 to 10000 nM

====

Reported IC50 for target or system JMJD2C (Homo sapiens (Human), UniProt Q9H3R0), by entry.

Reference set (3 entries):
O=C(O)c1ccncc1NC[C@H]1CCOc2cc(Sc3cccc(F)c3)ccc21 [Example 52]
1 to 10 µM
Cc1cccc(Sc2ccc3c(c2)CCC[C@H]3CNc2cnccc2C(=O)O)c1 [Example 69]
1 to 10 µM
CN(c1cccnc1)c1ccc2c(c1)CCC[C@H]2CNc1cnccc1C(=O)O [Example 12]
≤ 0.1 µM

The record that follows has no IC50 shown yet.
Prompt: GET /values?readout=IC50&system=JMJD2C (Homo sapiens (Human), UniProt Q9H3R0)&item= O=C(O)c1ccncc1NCC1CCCc2cc(N3CCCc4ccccc43)ccc21 (centres unmarked) [Example 4]
Response: 1 to 10 µM
